- test_system: β-secretase (BACE) (Homo sapiens, UniProt P56817)
- Construct: purchased Panvera
- Sequence (P56817 46-501): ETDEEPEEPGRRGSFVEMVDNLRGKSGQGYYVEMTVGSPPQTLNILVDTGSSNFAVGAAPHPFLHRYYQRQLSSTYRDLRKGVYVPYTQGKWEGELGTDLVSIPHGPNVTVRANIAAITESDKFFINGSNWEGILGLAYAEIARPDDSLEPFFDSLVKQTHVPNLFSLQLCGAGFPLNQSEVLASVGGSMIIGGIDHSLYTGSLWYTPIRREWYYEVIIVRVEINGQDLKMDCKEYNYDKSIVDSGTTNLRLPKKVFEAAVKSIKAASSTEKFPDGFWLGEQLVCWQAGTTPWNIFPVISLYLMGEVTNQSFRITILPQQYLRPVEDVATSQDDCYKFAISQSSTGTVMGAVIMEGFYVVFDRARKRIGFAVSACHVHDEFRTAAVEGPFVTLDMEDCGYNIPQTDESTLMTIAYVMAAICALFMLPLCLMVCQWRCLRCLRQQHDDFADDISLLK
- test_name: BACE FS1 % Inhibition Assay
- Type: biochemical
- test_conditions: 0.3 μM compound; FS1 substrate
readout_kind: % Inhibition (FS) (%)
One number for each entry, in %.

CC(CC(=O)NCCN1Cc2cc(-c3ccccc3)ccc2N=C1N)C(F)(F)F (centres unmarked) [Compound 685] | 50
CC(C)(C)C(=O)NCCN1Cc2cc(-c3ccc4ccccc4c3)ccc2N=C1N [Compound 667] | 33
NC1=Nc2ccc(Oc3ccccc3)cc2CN1[C@@H](CCC(=O)N[C@@H](CO)C(=O)O)C1CCOCC1 [Compound 771] | 46
NC1=Nc2ccc(-c3ccc4ccccc4c3)cc2CN1CCNC(=O)C12CC3CC(CC(C3)C1)C2 [Compound 665] | 35
CC(C)CCC(=O)NCCN1Cc2cc(-c3cnc4ccccc4c3)ccc2N=C1N [Compound 675] | 35

Value sought for every listed compound: % Inhibition (FS).
1. CCCC(=O)NCCN1Cc2cc(-c3ccc4ccccc4c3)ccc2N=C1N [Compound 666]
2. CC(CC(=O)NCCN1Cc2cc(-c3ccccc3F)ccc2N=C1N)C(F)(F)F (centres unmarked) [Compound 681]
3. CCCC(=O)NCCN1Cc2cc(-c3cnc4ccccc4c3)ccc2N=C1N [Compound 673]
4. CN(C(=O)CCC(C)(C)N1Cc2cc(Oc3ccccc3)ccc2N=C1N)C1CCCCC1 [Compound 738]

Found:
[37, 67, 34, 14]
